- assay.details: acute oral toxicity (LD 50)
- stated.conditions: mouse, in vivo, mice
- Source text: The components of the invention benefit from a good tolerance and a weak toxicity. […] 1, in mice.
measured.quantity: LD50 (mg/kg)
Answers are plain numbers, in mg/kg.

Exercise: Which measured LD50 value corresponds to CCCNC(=O)c1cn(COC)c2ccccc2c1=O [derivative no. 1] ?
Solution: 1100

----------
- assay.details: anticonvulsive activity, test with pentetrazol
- Type: in vivo, mice (male CD1)
- stated.conditions: Mus musculus, 0.5 h; oral route, 30 minutes before pentetrazol 135 mg/kg s.c.; dose which avoids attacks in half of the animals; read-out: DE50 (the source's name)
The label is satisfied for ED50 below 60 mg/kg and not satisfied for ED50 equal to or exceeding 60 mg/kg.

| molecule | group |
| --- | --- |
| CCCNC(=O)c1cn(COCC)c2ccccc2c1=O | not satisfied |

Exercise: Report whether reported ED50 is lower than 60 mg/kg (strictly) for CCCC(CCC)C(=O)[O-].[Na+] [sodium valproate, reference compound]
Solution: not satisfied

Exercise: Report whether reported ED50 is lower than 60 mg/kg (strictly) for CCC1(c2ccccc2)C(=O)NC(=O)NC1=O [phenobarbital, reference compound]
Solution: satisfied

Exercise: Report whether reported ED50 is lower than 60 mg/kg (strictly) for `CCCNC(=O)c1cn(COC)c2c(Cl)cccc2c1=O`
Solution: satisfied

Exercise: Report whether reported ED50 is lower than 60 mg/kg (strictly) for `COCn1cc(C(=O)NCC(C)C)c(=O)c2ccccc21`
Solution: satisfied

Exercise: Report whether reported ED50 is lower than 60 mg/kg (strictly) for `CCCNC(=O)c1cn(CCOC)c2ccccc2c1=O`
Solution: satisfied

Exercise: Report whether reported ED50 is lower than 60 mg/kg (strictly) for `CCCNC(=O)c1cn(COC)c2ccc(OC)cc2c1=O`
Solution: not satisfied

Source of measurements: patent US4835163A
